System: MDRPA
Assay: MIC determination, microdilution broth method;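 further: broth microdilution per NCCLS recommendations, testing Pithecellobium clypearia water or ethanol extracts against multidrug-resistant Pseudomonas aeruginosa, with MIC50 and MIC90 derived statistically from individual MICs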
Conditions: Pseudomonas aeruginosa, read-out: MIC (single use), strain P16; EA=P. clypearia 10% ethanol extract

| molecular-string | qualifier | MIC, µg/mL |
| --- | --- | --- |
| C[C@H]1COc2c(N3CCN(C)CC3)c(F)cc3c(=O)c(C(=O)O)cn1c23 | = | 32 |
| NCC[C@H](O)C(=O)N[C@@H]1C[C@H](N)[C@@H](O[C@H]2O[C@H](CN)[C@@H](O)[C@H](O)[C@H]2O)[C@H](O)[C@H]1O[C@H]1O[C@H](CO)[C@@H](O)[C@H](N)[C@H]1O | = | 256 |
| C[C@@H](O)[C@H]1C(=O)N2C(C(=O)O)=C(SCCN=CN)C[C@H]12 | = | 16 |
| CCN1CCN(C(=O)N[C@@H](C(=O)N[C@@H]2C(=O)N3C(C(=O)O)=C(CSc4nnnn4C)CS[C@H]23)c2ccc(O)cc2)C(=O)C1=O | > | 512 |
| CC(C)(O/N=C(\C(=O)N[C@@H]1C(=O)N2C(C(=O)[O-])=C(C[n+]3ccccc3)CS[C@H]12)c1csc(N)n1)C(=O)O | = | 32 |
